# target_or_test_system: CDK9/Cyclin T1 (Homo sapiens)
# protocol: CDK9 Enzymatic Activity Assay (Lance Kinase Activity Assay, FRET)
# Format: biochemical
# cond: Table 5B, class symbols per IC50 [nM] ranges of b581; read-out: CDK9: Selectivity of CDK7 inhibition over CDK9 inhibition
Please respond with reported IC50 for every item in the list.

Here is how some compounds turned out for IC50.
{"compound": "CC(C)c1cnn2c(NCc3ccccc3-n3cccn3)nc(N3CC(N4CCC(F)(F)C4)C3)nc12 [(VIII-041)]", "result": "> 2500 nM"}
{"compound": "CC(C)c1cnn2c(NCc3cccc4ccccc34)nc(OC3CCN(C)CC3)nc12 [(VII-61)]", "result": "50 to 500 nM"}
{"compound": "CC(C)c1cnn2c(NCc3ccccc3-n3cccn3)nc(SC3CCNCC3)nc12 [(X-9)]", "result": "> 2500 nM"}

Form field: reported IC50 of CC(C)c1cnn2c(NCc3ccccc3-c3nnn(C)n3)nc(N3CCC4(CCCN4)CC3)nc12 [(VIII-19)]
> 2500 nM

---

# target_or_test_system: CDK9/Cyclin T1 (Homo sapiens, UniProt P50750)
# Sequence (P50750 whole entry): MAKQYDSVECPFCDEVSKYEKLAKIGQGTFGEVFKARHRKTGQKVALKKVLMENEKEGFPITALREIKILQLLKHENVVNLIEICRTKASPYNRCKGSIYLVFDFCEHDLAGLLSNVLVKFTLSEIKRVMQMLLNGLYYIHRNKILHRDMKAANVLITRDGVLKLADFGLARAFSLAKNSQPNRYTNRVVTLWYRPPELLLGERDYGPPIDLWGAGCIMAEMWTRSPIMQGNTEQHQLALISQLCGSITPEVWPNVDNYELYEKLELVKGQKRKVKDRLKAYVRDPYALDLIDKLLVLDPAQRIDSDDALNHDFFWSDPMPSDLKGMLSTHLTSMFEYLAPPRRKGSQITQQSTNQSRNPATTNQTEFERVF
# Sequence (O60563 whole entry partner): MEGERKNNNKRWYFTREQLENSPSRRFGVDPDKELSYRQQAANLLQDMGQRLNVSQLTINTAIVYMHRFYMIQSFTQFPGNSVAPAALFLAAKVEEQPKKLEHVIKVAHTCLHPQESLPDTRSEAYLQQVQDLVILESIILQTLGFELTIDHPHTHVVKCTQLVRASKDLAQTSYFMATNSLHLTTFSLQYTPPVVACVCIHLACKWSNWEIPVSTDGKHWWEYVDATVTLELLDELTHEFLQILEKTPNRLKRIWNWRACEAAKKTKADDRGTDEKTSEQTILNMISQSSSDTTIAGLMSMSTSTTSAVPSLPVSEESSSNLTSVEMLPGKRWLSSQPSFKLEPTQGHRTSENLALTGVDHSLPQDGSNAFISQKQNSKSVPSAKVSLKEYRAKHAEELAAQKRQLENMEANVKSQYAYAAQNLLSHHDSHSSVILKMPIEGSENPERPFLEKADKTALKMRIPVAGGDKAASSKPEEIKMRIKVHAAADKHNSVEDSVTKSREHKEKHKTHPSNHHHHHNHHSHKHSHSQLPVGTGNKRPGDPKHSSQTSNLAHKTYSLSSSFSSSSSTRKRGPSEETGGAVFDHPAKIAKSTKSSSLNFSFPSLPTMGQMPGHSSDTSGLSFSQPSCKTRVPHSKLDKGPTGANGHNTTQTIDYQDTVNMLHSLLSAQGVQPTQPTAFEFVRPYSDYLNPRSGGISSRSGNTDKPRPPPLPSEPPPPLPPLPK
# protocol: CDK9 Enzymatic Activity Assay (Lance Kinase Activity Assay, FRET)
# Assay type: biochemical
# cond: Table 5B, class symbols per IC50 [nM] ranges of b581; read-out: CDK9: Selectivity of CDK7 inhibition over CDK9 inhibition
parameter: IC50

Below, 3 molecules whose answers are already recorded.
{"molecule": "COc1ccccc1[C@H](C)Nc1nc(O[C@@H]2CCCNC2)nc2c(C(C)C)cnn12", "result": "500 to 2500 nM"}
{"molecule": "CC(C)c1cnn2c(NCc3ccccc3-n3cccn3)nc(C(=O)N(C)CCN3CCCC3)nc12", "result": "> 2500 nM"}
{"molecule": "CC(C)c1cnn2c(NCc3ccccc3-n3cccn3)nc(OC3C=CCNC3)nc12 (stereo not drawn)", "result": "> 2500 nM"}

Please state IC50 for every molecule in the list that follows.
1. CC(C)c1cnn2c(NCc3ccccc3-n3cccn3)nc(N3CC4(CCNC4)C3)nc12
2. CC(C)Oc1ccccc1CNc1nc(N[C@@H]2CCCNC2)nc2c(C(C)C)cnn12
3. CC(C)c1cnn2c(NCc3ccccc3-n3cccn3)nc(N(C)CCCN3CCCCC3)nc12
4. CC(C)c1cnn2c(NCc3ccccc3-n3cccn3)nc(C(=O)N3CC4(CNC4)C3)nc12
5. CC(C)c1cnn2c(NCc3cccc4c3cnn4C)nc(O[C@@H]3CCCNC3)nc12
6. CC(C)c1cnn2c(NCc3ccccc3CN3CCCC3=O)nc(O[C@@H]3CCCNC3)nc12

1. > 2500 nM
2. > 2500 nM
3. > 2500 nM
4. > 2500 nM
5. < 50 nM
6. > 2500 nM

---

# target_or_test_system: CDK2/CycA (Homo sapiens, UniProt P24941)
# Construct: purchased Proqinase
# protocol: CDK2 Enzymatic Activity Assay (Lance Kinase Activity Assay, FRET)
# Assay type: biochemical
# cond: Table 5B, class symbols per IC50 [nM] ranges of b581; read-out: CDK2: Selectivity of CDK7 inhibition over CDK2 inhibition
parameter: IC50

The examples below pair each entry with its known result.
{"molecule": "CC(C)c1cnn2c(NCc3cc(F)ccc3-n3cccn3)nc(O[C@@H]3CCCNC3)nc12", "IC50": "< 50 nM"}
{"molecule": "CC(C)c1cnn2c(NCc3ccccc3-c3ccccc3)nc(O[C@@H]3CCCNC3)nc12", "IC50": "500 to 2500 nM"}
{"molecule": "CC(C)c1cnn2c(NCc3ccccc3C(F)(F)F)nc(OC3CCN(C)CC3)nc12 [VII-058]", "IC50": "> 2500 nM"}
{"molecule": "CC(C)c1cnn2c(NCc3ccccc3-n3cccn3)nc(OCCN3CCNCC3)nc12", "IC50": "> 2500 nM"}
{"molecule": "CC(C)c1cnn2c(NCc3ccccc3-c3cccs3)nc([S+]([O-])C3CCNCC3)nc12 (centres unmarked)", "IC50": "50 to 500 nM"}

Batch lookup, IC50 per entry.
1. CC(C)c1cnn2c(NCc3ccccc3OC3CCCC3)nc(O[C@@H]3CCCNC3)nc12
2. CC(C)c1cnn2c(NCc3cccc(Cl)c3Cl)nc(O[C@@H]3CCCNC3)nc12
3. CC(C)c1cnn2c(NCc3ccccc3-n3cccn3)nc(N3CCCC4(CCNCC4)C3)nc12

1: > 2500 nM; 2: 50 to 500 nM; 3: 500 to 2500 nM

---

# target_or_test_system: CDK2/CycA (Homo sapiens, UniProt P24941)
# Construct: purchased Proqinase
# protocol: CDK2 Enzymatic Activity Assay (Lance Kinase Activity Assay, FRET)
# Format: biochemical
# cond: Table 5B, class symbols per IC50 [nM] ranges of b581; read-out: CDK2: Selectivity of CDK7 inhibition over CDK2 inhibition
# Protocol: This protocol describes how the Lance Kinase Activity Assay was performed to determine IC50 values of compounds of general formula (I) against CDK/Cyclin complexes. […] It is detected by using a specific EU-labeled anti-phospho peptide antibody. […] For positive controls, 2 μl of DMSO working solution were mixed with 6 μl CDK2/CycA/substrate working solution and 2 μl ATP working solution. Positive and negative controls were calculated from at least 8 different wells. […]
parameter: IC50

{"compound": "CC(C)c1cnn2c(NCc3ccccc3[S+]([O-])C3CCCC3)nc(O[C@@H]3CCCNC3)nc12 (stereo partly shown) [(VII-153)]", "parameter": "IC50", "result": "> 2500 nM"}
{"compound": "COCCN1CCN(Cc2nc(NCc3ccccc3-n3cccn3)n3ncc(C(C)C)c3n2)CC1 [(XXX-9)]", "parameter": "IC50", "result": "> 2500 nM"}
{"compound": "CCNC(=O)Nc1ccccc1CNc1nc(O[C@@H]2CCCNC2)nc2c(C(C)C)cnn12 [(VII-114)]", "parameter": "IC50", "result": "> 2500 nM"}
{"compound": "CC(C)c1cnn2c(NCc3ccccc3-c3ccccc3)nc([S+]([O-])C3CCNCC3)nc12 (stereo not shown) [(X-3)]", "parameter": "IC50", "result": "500 to 2500 nM"}
{"compound": "COc1ccccc1CNc1nc(OC2CCN(C)CC2)nc2c(C(C)C)cnn12 [(VII-71)]", "parameter": "IC50", "result": "50 to 500 nM"}
{"compound": "CC(C)c1cnn2c(NCc3ccccc3-n3cccn3)nc(N3CCC4(CCCCN4)CC3)nc12 [(VIII-23)]", "parameter": "IC50", "result": "500 to 2500 nM"}

Could you now consider this next compound?
Using the record for CC(C)c1cnn2c(NCc3ccccc3N3CCCC3=O)nc(N3CCC4(CCCN4)CC3)nc12 [(VIII-38)] , report its IC50.
> 2500 nM

---

# target_or_test_system: CDK7/CycH/Mat1 (Homo sapiens, UniProt P50613)
# Sequence (P50613 whole entry): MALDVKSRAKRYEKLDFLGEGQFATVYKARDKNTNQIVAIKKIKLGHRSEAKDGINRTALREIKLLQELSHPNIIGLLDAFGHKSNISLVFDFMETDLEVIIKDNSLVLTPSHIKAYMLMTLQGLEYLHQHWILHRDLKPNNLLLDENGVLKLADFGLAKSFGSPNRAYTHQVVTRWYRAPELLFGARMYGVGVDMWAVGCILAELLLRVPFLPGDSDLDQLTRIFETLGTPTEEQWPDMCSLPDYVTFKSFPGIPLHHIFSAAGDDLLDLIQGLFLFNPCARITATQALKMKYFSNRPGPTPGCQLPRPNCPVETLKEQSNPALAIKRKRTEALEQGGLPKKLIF
# protocol: CDK7 Enzymatic Activity Assay (Lance Kinase Activity Assay, FRET)
# Assay type: biochemical
# cond: CDK7/CycH/Mat1, 25 μM ATP final; class ranges; read-out: CDK7: IC50 [nM] for CDK7 inhibition
For each entry below, report its IC50 value.

These recorded examples may help you get a feel for the data.
{"item_smiles": "CC(C)c1cnn2c(NCc3ccccc3-n3cncn3)nc(O[C@@H]3CCCNC3)nc12", "result": "< 5 nM"}
{"item_smiles": "CC(C)c1cnn2c(NCc3ccccc3OC3CCC3)nc(O[C@@H]3CCCNC3)nc12", "result": "> 25 nM"}

Please find the next compound below.
What IC50 value was documented for this compound, CC(C)c1cnn2c(NCc3ccccc3-n3cccn3)nc(NCCN3CCCC3)nc12 ?
> 25 nM
